Quick reference: log10(Kd) of the listed items.
Biological target: T1, EsCas13d, nuclease-dead (Eubacterium siraeum, UniProt B0MS50, R295A;H300A;R849A;H854A)
T1 sequence: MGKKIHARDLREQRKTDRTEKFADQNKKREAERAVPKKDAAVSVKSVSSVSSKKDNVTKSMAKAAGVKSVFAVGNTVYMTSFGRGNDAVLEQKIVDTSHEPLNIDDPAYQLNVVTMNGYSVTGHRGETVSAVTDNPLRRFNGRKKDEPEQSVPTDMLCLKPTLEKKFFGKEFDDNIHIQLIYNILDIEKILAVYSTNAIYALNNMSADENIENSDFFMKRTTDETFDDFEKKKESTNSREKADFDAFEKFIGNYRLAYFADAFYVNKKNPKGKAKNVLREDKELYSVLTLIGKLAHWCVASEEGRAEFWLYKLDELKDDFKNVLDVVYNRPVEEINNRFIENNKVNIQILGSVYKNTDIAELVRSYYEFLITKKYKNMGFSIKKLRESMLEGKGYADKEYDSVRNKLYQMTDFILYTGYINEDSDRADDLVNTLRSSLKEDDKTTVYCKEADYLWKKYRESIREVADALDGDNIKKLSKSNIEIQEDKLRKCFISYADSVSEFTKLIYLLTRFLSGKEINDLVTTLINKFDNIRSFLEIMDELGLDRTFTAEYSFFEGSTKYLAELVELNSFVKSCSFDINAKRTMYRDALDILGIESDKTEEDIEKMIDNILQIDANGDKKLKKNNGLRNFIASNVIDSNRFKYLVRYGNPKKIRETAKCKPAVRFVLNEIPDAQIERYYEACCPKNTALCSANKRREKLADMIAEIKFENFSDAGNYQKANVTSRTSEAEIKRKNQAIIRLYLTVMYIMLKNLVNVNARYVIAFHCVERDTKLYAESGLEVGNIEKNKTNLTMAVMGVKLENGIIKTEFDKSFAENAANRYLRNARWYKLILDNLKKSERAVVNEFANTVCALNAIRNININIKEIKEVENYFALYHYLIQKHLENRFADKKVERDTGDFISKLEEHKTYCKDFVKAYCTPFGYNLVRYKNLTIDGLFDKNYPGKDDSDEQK
Assay: crRNA (strand 1, pre-loaded); Mg2+; 40 mM Tris-HCl pH 7.5, 150 mM NaCl, 6 mM MgCl2, 1 mM DTT, 0.1% Tween-20, 0.2 mg/ml BSA; 25 C; 10 min per concentration, then washed
Conditions: tags: His6-TwinStrep-SUMO cleaved; N-terminal SNAP kept (SNAP-Surface 488); label: 3' end held by stalled T7 RNA polymerase
measurement_label: log10(Kd) (log10 of the value in nM)

| binder | log10(Kd) |
| --- | --- |
| target 1 MT 5'PFS GCC 3'PFS UUG (mixed) RNA 1: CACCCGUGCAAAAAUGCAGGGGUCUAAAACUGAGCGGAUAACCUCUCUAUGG RNA 2: GGGAAUGGAUCCACAUCUACGAAUUCGCCCCAUAGAGAGGUUAUCCGCUCAUUGAGAUCGGAAGAGCACACGU | 0.91 |
| target 3 insU 3' of 22 (mixed) RNA 1: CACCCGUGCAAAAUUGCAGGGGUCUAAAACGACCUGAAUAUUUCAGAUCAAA RNA 2: GGGAAUGGAUCCACAUCUACGAAUUCGUUUUUUGAUCUGAAAUAUUCAGGUCUGCAGAUCGGAAGAGCACACGU | 1.24 |
| target 2 MT 5'PFS GGA 3'PFS AAU (mixed) RNA 1: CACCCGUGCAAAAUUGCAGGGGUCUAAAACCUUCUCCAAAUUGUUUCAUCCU RNA 2: GGGAAUGGAUCCACAUCUACGAAUUCGGAAGGAUGAAACAAUUUGGAGAAGAAUAGAUCGGAAGAGCACACGU | 0.83 |
| target 1 A1U,G5U (mixed) RNA 1: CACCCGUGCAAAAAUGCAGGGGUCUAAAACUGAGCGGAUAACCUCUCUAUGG RNA 2: GGGAAUGGAUCCACAUCUACGAAUUCGUACCAUAGAGAGGUUAUCCUCUCUCCGAGAUCGGAAGAGCACACGU | 1.86 |
| target 1 A14C (mixed) RNA 1: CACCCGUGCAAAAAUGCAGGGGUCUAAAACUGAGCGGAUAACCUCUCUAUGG RNA 2: GGGAAUGGAUCCACAUCUACGAAUUCGUACCAUAGAGCGGUUAUCCGCUCACCGAGAUCGGAAGAGCACACGU | 1.49 |
| target 1 complement block 2-11 (mixed) RNA 1: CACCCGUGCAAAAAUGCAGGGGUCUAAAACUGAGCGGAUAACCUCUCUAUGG RNA 2: GGGAAUGGAUCCACAUCUACGAAUUCGUACCAUAGAGAGGAAUAGGCGAGACCGAGAUCGGAAGAGCACACGU | 1.09 |
| target 2 MT 5'PFS GAG 3'PFS CAG (mixed) RNA 1: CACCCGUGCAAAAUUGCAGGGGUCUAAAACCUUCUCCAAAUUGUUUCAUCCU RNA 2: GGGAAUGGAUCCACAUCUACGAAUUCGAGAGGAUGAAACAAUUUGGAGAAGCAGAGAUCGGAAGAGCACACGU | 0.73 |
| target 1 A9G,A20C (mixed) RNA 1: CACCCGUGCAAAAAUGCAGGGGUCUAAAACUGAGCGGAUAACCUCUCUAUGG RNA 2: GGGAAUGGAUCCACAUCUACGAAUUCGUACCCUAGAGAGGUUGUCCGCUCACCGAGAUCGGAAGAGCACACGU | 1.73 |
| target 1 C4U,C7U (mixed) RNA 1: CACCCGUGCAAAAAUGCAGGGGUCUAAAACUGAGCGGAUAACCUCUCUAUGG RNA 2: GGGAAUGGAUCCACAUCUACGAAUUCGUACCAUAGAGAGGUUAUUCGUUCACCGAGAUCGGAAGAGCACACGU | 1.46 |
| target 1 insA 3' of 17,insA 3' of 10 (mixed) RNA 1: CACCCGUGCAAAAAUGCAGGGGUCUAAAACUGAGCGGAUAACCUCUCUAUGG RNA 2: GGGAAUGGAUCCACAUCUACGAAUUCGUACCAUAGAAGAGGUUAAUCCGCUCACCGAGAUCGGAAGAGCACACGU | 1.28 |
| target 1 insA 3' of 22,insA 3' of 2 (mixed) RNA 1: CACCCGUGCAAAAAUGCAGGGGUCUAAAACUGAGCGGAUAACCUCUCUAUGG RNA 2: GGGAAUGGAUCCACAUCUACGAAUUCGUACACAUAGAGAGGUUAUCCGCUCAACCGAGAUCGGAAGAGCACACGU | 1.10 |
| target 3 G3A,G4U (mixed) RNA 1: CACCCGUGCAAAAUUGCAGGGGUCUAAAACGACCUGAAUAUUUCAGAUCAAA RNA 2: GGGAAUGGAUCCACAUCUACGAAUUCGUUUUUGAUCUGAAAUAUUCAUAUCUGCAGAUCGGAAGAGCACACGU | 0.95 |
| target 2 MT 5'PFS ACC 3'PFS AUA (mixed) RNA 1: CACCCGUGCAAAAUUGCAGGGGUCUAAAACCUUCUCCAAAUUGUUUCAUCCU RNA 2: GGGAAUGGAUCCACAUCUACGAAUUCACCAGGAUGAAACAAUUUGGAGAAGAUAAGAUCGGAAGAGCACACGU | 0.83 |

These data points were gathered from paper PMC10786891.
